# Measured on: Ubiquitin carboxyl-terminal hydrolase 1 (Homo sapiens) (UniProt O94782)
# Sequence (O94782 whole entry, looked up): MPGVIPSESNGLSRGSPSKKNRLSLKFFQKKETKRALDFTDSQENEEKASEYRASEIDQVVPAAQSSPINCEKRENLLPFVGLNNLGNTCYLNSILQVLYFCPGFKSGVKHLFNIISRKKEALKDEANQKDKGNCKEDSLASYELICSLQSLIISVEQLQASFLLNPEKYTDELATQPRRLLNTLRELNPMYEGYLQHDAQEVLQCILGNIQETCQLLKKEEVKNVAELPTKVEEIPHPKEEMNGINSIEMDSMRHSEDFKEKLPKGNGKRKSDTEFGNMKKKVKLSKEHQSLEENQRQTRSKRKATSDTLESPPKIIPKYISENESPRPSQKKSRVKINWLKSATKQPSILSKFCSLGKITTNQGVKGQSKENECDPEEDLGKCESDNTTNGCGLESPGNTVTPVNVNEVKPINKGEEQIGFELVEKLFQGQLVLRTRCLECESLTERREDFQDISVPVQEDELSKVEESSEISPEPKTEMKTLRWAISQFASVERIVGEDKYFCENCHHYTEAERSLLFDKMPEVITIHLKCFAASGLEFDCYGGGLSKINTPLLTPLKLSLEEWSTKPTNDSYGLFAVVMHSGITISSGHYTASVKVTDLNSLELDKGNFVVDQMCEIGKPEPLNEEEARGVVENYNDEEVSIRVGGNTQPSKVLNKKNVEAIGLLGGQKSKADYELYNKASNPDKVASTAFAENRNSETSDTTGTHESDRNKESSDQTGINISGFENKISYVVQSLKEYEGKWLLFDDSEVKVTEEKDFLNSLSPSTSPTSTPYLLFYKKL
# Method: Inhibitors of USP1/UAF1: Pilot qHTS (AID 504865);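 further: rhodamine fluorescence freed from ubiquitin-rhodamine substrate followed over time; top concentration of the series differs between compounds; nearly all actives have a fitted effect of over 35% in size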
# Experimental parameters: purified USP1/UAF1, Ub-rhodamine cleavage fluorescence; series mostly up to 114 µM
Records with an inconclusive call do not appear. Activity calls are given as the source filed them. The call rests on the fitted dose curve; in most records, active means well fitted inhibition curve with a large enough effect; inconclusive means small, poorly fitted or top-dose-only effect; inactive means flat fitted curve, though single readings scatter.
Allowed answers: t (active), f (inactive)

// below: answered compounds
Cn1c(=O)c2[nH]c(Br)nc2n(C)c1=O | f
CN1CCN(c2c(F)cc3c(=O)c(C(=O)O)cn4c3c2SCC4)CC1 | f
O=C(O)CCNC(=O)c1ccccc1 | f
COc1ccc(-c2cc(C(F)F)nn2-c2ccc(S(N)(=O)=O)cc2)cc1F | f
N=C(N)N1CCc2ccccc2C1 | f

In: # lookup: test call for `O=C(Nc1cccc(C2=NCCN2)c1)Nc1cccc(C2=NCCN2)c1`
Out: f

In: Lab log entry: `Cc1ccc(O)c([C@H](CCN(C(C)C)C(C)C)c2ccccc2)c1` — outcome as called in the assay?
Out: f

In: What outcome does the record of this test show for `CCOCCn1c(N2CCCN(C)CC2)nc2ccccc21` ?
Out: f
